- System: Streptococcus agalactiae
- test: MIC, in vitro activity vs. Streptococcus agalactiae
- Assay type: cell-based
- Parameters: unit not given here
- runParameters: Incubated at 37° C. overnight
reportedProperty: MIC vs. Streptococcus agalactiae
Please respond with just the number, no unit label.

Kindly note the recorded MIC vs. Streptococcus agalactiae for `Cc1nnc(SCC2=C(C(=O)O)N3C(=O)[C@@H](NC(=O)COc4cc(F)cc(F)c4)[C@H]3SC2)s1` , which is 0.0156

====

- Test system: S.aureus 174 C
- test: MIC, in vitro activity vs. S.aureus 174 C
- Assay type: cell-based, Staphylococcus aureus
- Set-up: unit not given beside the values
- runParameters: Incubated at 37° C. overnight
reportedProperty: MIC vs. S.aureus 174 C
Please respond with just the number, no unit label.

Answered cases to consult:
Here `Cc1nnc(SCC2=C(C(=O)O)N3C(=O)[C@@H](NC(=O)COc4ccc(OC(F)(F)F)cc4)[C@H]3SC2)s1` was tested on S.aureus 174 C, and its MIC vs. S.aureus 174 C came to 0.312

Here `Cc1nnc(SCC2=C(C(=O)O)N3C(=O)[C@@H](NC(=O)CSc4c(F)c(F)c(F)c(F)c4F)[C@H]3SC2)s1` was tested on S.aureus 174 C, and its MIC vs. S.aureus 174 C came to 0.0625

Here `Cc1nnc(SCC2=C(C(=O)O)N3C(=O)[C@@H](NC(=O)CSc4ccc(S(=O)(=O)C(F)(F)F)cc4)[C@H]3SC2)s1` was tested on S.aureus 174 C, and its MIC vs. S.aureus 174 C came to 0.0312

Now consider the entry below.
Here `Cc1nnc(SCC2=C(C(=O)O)N3C(=O)[C@@H](NC(=O)COc4ccc(F)cc4)[C@H]3SC2)s1` was tested on S.aureus 174 C, and its MIC vs. S.aureus 174 C came to 0.0312

====

In this section we review reported MIC vs. S.aureus 174 C values for a set of compounds.
- System: S.aureus 174 C
- test: MIC, in vitro activity vs. S.aureus 174 C
- Type: cell-based, Staphylococcus aureus
- Design: unit not given beside the values
- runParameters: Incubated at 37° C. overnight
Please respond with just the number, no unit label.

Kindly note the recorded MIC vs. S.aureus 174 C for `Cc1nnc(SCC2=C(C(=O)O)N3C(=O)[C@@H](NC(=O)Cc4c(F)c(F)c(F)c(F)c4F)[C@H]3SC2)s1` , which is 0.125

Kindly note the recorded MIC vs. S.aureus 174 C for `Cc1nnc(SCC2=C(C(=O)O)N3C(=O)[C@@H](NC(=O)CSc4ccc(C(F)(F)F)cc4)[C@H]3SC2)s1` , which is 0.125

Kindly note the recorded MIC vs. S.aureus 174 C for `Cc1nnc(SCC2=C(C(=O)O)N3C(=O)[C@@H](NC(=O)COc4c(F)c(F)c(F)c(F)c4F)[C@H]3SC2)s1` , which is 0.25

Kindly note the recorded MIC vs. S.aureus 174 C for `Cc1nnc(SCC2=C(C(=O)O)N3C(=O)[C@@H](NC(=O)COc4cc(F)cc(F)c4)[C@H]3SC2)s1` , which is 0.0312

Kindly note the recorded MIC vs. S.aureus 174 C for `Cc1nnc(SCC2=C(C(=O)O)N3C(=O)[C@@H](NC(=O)COc4c(F)cc(F)cc4F)[C@H]3SC2)s1` , which is 0.0625

More entries:
Kindly note the recorded MIC vs. S.aureus 174 C for `Cc1nnc(SCC2=C(C(=O)O)N3C(=O)[C@@H](NC(=O)CSc4c(F)c(F)c(C(F)(F)F)c(F)c4F)[C@H]3SC2)s1` , which is 0.0625

Kindly note the recorded MIC vs. S.aureus 174 C for CC(=O)OCC1=C(C(=O)O)N2C(=O)[C@@H](NC(=O)Cc3cccs3)[C@H]2SC1 [Cephalothin, reference compound] , which is 0.25

====

In this section we review reported MIC vs. Streptococcus uberis 150 L values for a set of compounds.
- System: Streptococcus uberis 150 L
- test: MIC, in vitro activity vs. Streptococcus uberis 150 L
- Format: cell-based
- Set-up: unit not given beside the values
- runParameters: Incubated at 37° C. overnight
Please respond with just the number, no unit label.

Answered cases to consult:
Here `Cc1nnc(SCC2=C(C(=O)O)N3C(=O)[C@@H](NC(=O)COc4c(F)cc(F)cc4F)[C@H]3SC2)s1` was tested on Streptococcus uberis 150 L, and its MIC vs. Streptococcus uberis 150 L came to 0.0625

Here `Cc1nnc(SCC2=C(C(=O)O)N3C(=O)[C@@H](NC(=O)CSc4ccc(C(F)(F)F)cc4)[C@H]3SC2)s1` was tested on Streptococcus uberis 150 L, and its MIC vs. Streptococcus uberis 150 L came to 0.125

Here `Cc1nnc(SCC2=C(C(=O)O)N3C(=O)[C@@H](NC(=O)COc4c(F)c(F)c(F)c(F)c4F)[C@H]3SC2)s1` was tested on Streptococcus uberis 150 L, and its MIC vs. Streptococcus uberis 150 L came to 0.25

Now consider the entry below.
Here `Cc1nnc(SCC2=C(C(=O)O)N3C(=O)[C@@H](NC(=O)Cc4c(F)c(F)c(F)c(F)c4F)[C@H]3SC2)s1` was tested on Streptococcus uberis 150 L, and its MIC vs. Streptococcus uberis 150 L came to 0.0625

====

- Test system: Streptococcus agalactiae
- test: MIC, in vitro activity vs. Streptococcus agalactiae
- Type: cell-based
- Design: unit not given here
- runParameters: Incubated at 37° C. overnight
Checkbox rule: MIC vs. Streptococcus agalactiae lower than 0.03 = yes (1); MIC vs. Streptococcus agalactiae not lower than 0.03 = no (0).

Item `Cc1nnc(SCC2=C(C(=O)O)N3C(=O)[C@@H](NC(=O)CSc4ccc(C(F)(F)F)cc4)[C@H]3SC2)s1` : MIC vs. Streptococcus agalactiae beneath 0.03, strictly?
no (0)

More entries:
Item `Cc1nnc(SCC2=C(C(=O)O)N3C(=O)[C@@H](NC(=O)CSc4c(F)c(F)c(C(F)(F)F)c(F)c4F)[C@H]3SC2)s1` : MIC vs. Streptococcus agalactiae beneath 0.03, strictly?
yes (1)

Item `Cc1nnc(SCC2=C(C(=O)O)N3C(=O)[C@@H](NC(=O)COc4ccc(OC(F)(F)F)cc4)[C@H]3SC2)s1` : MIC vs. Streptococcus agalactiae beneath 0.03, strictly?
no (0)

====

- Test system: Streptococcus agalactiae
- test: MIC, in vitro activity vs. Streptococcus agalactiae
- Format: cell-based
- Parameters: unit not given here
- runParameters: Incubated at 37° C. overnight
- Procedure: Table 2 summarizes the minimal inhibitory concentrations (MIC's) at which illustrative formula I compounds and cephalothin inhibit certain microorganisms associated with mastitis, such as Staphylococcus aureus 10092 (Newbould strain). ^a Incubated at 37° C. overnight
reportedProperty: MIC vs. Streptococcus agalactiae
Please respond with just the number, no unit label.

Here Cc1nnc(SCC2=C(C(=O)O)N3C(=O)[C@@H](NC(=O)COc4c(F)cc(F)cc4F)[C@H]3SC2)s1 [Compound 9] was tested on Streptococcus agalactiae, and its MIC vs. Streptococcus agalactiae came to 0.0312

Here Cc1nnc(SCC2=C(C(=O)O)N3C(=O)[C@@H](NC(=O)COc4c(F)c(F)c(F)c(F)c4F)[C@H]3SC2)s1 [Compound 1] was tested on Streptococcus agalactiae, and its MIC vs. Streptococcus agalactiae came to 0.25

Here Cc1nnc(SCC2=C(C(=O)O)N3C(=O)[C@@H](NC(=O)COc4ccc(F)cc4)[C@H]3SC2)s1 [Compound 8] was tested on Streptococcus agalactiae, and its MIC vs. Streptococcus agalactiae came to 0.0312

Here Cc1nnc(SCC2=C(C(=O)O)N3C(=O)[C@@H](NC(=O)CSc4c(F)c(F)c(F)c(F)c4F)[C@H]3SC2)s1 [Compound 3] was tested on Streptococcus agalactiae, and its MIC vs. Streptococcus agalactiae came to 0.0156

More entries:
Here CC(=O)OCC1=C(C(=O)O)N2C(=O)[C@@H](NC(=O)Cc3cccs3)[C@H]2SC1 [Cephalothin, reference compound] was tested on Streptococcus agalactiae, and its MIC vs. Streptococcus agalactiae came to 0.125

Here Cc1nnc(SCC2=C(C(=O)O)N3C(=O)[C@@H](NC(=O)Cc4c(F)c(F)c(F)c(F)c4F)[C@H]3SC2)s1 [Compound 6] was tested on Streptococcus agalactiae, and its MIC vs. Streptococcus agalactiae came to 0.0625

Here Cc1nnc(SCC2=C(C(=O)O)N3C(=O)[C@@H](NC(=O)CSc4ccc(S(=O)(=O)C(F)(F)F)cc4)[C@H]3SC2)s1 [Compound 4] was tested on Streptococcus agalactiae, and its MIC vs. Streptococcus agalactiae came to 0.0156
